Could you please report measured Dmax for the items listed next?
target: BTK (Homo sapiens); assay: Degradation of BTK protein in Namalwa cells (Western blot; DC50, Dmax); conditions: read-out: Dmax (BTK degradation)
Sequence (Q06187 whole entry): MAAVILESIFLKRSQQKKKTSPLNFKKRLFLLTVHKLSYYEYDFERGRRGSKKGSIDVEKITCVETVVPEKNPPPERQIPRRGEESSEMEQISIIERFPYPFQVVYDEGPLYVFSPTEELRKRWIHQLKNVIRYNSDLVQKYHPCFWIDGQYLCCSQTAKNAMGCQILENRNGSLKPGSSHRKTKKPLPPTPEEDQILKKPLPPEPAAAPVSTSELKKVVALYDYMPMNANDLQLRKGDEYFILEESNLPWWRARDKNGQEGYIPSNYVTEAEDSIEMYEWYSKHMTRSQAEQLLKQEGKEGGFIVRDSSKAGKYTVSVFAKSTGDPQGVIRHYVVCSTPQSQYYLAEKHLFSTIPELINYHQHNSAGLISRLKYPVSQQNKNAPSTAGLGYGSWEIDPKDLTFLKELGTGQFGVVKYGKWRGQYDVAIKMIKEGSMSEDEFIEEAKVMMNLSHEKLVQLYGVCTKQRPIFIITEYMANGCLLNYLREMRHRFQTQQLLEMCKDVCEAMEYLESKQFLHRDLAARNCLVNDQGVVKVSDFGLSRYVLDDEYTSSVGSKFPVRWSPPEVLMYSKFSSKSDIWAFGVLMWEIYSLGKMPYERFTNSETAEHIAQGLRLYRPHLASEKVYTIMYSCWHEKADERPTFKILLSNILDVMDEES

Below, 3 molecules whose answers are already recorded.
MOLECULE: NC1=NC=NC2C1C(c1ccc(Oc3ccccc3)cc1)=NN2C1CCN(C(=O)N2CC(C3CN(c4ccc5c(c4)CN([C@H]4CCC(=O)NC4=O)C5=O)C3)C2)CC1 (some centres unmarked)
Dmax: > 90%
--
MOLECULE: NC(=O)c1c(-c2ccc(Oc3ccccc3)cc2)nn2c1NCC[C@H]2C1CCN(CC2CCN(C(=O)N3CCN(C4CCN(c5ccc6c(c5)C(=O)N(C5CCC(=O)NC5=O)C6=O)CC4)CC3)CC2)CC1 (some centres unmarked)
Dmax: > 90%
--
MOLECULE: Nc1ncnc2c1c(-c1ccc(Oc3ccccc3)cc1)nn2C1CCN(C2CCN(CC3CCN(c4ccc5c(c4)CN(C4CCC(=O)NC4=O)C5=O)CC3)C2)CC1 (centres unmarked)
Dmax: > 75%

# per-item lookup of Dmax; items listed below
1. Nc1ncnc2c1c(-c1ccc(Oc3ccccc3)cc1)nn2[C@@H]1CCCN(CC2CCN(C(=O)NC3CCC(=O)NC3=O)CC2)C1 (some centres unmarked)
2. Nc1ncnc2c1c(-c1ccc(Oc3ccccc3)cc1)nn2C1CCN(CCC#Cc2ccc(N3CCC(=O)NC3=O)cc2)CC1

1. > 75%
2. > 50%
